Would you kindly list Φ^1 (fluorescence quantum yield) for each of these molecules?
# test: Photophysical properties in acetonitrile (absorption, emission, extinction coefficient, quantum yield)
# Assay type: physicochemical
# study-conditions: Table 2; in acetonitrile
Number, no unit, nothing else.

Please report Φ^1 (fluorescence quantum yield) for the following molecule: "COc1ccc(C2=C3C(C)=C(Cl)C(C=Cc4ccc5c(c4)c4ccccc4n5Cc4cn(CCN5CCNCC5)nn4)=[N+]3[B-](F)(F)n3c(C=Cc4ccc5c(c4)c4ccccc4n5Cc4cn(CCN5CCNCC5)nn4)c(Cl)c(C)c32)cc1"
0.79

Please report Φ^1 (fluorescence quantum yield) for the following molecule: "CCOC(=O)CCC1=C2C(C)=CC(C)=[N+]2[B-](F)(F)n2c(C=Cc3ccc4c(c3)c3ccccc3n4Cc3cn(CCCN(C)CCN(C)C)nn3)cc(C)c21"
0.81

Please report Φ^1 (fluorescence quantum yield) for the following molecule: "CC1=C(Cl)C(C)=[N+]2C1=C(c1ccc(C)cc1)c1c(C)c(Cl)c(C=Cc3ccc4c(c3)c3ccccc3n4Cc3cn(CCN4CCNCC4)nn3)n1[B-]2(F)F"
0.73

Please report Φ^1 (fluorescence quantum yield) for the following molecule: "CCOC(=O)CCC1=C2C(C)=CC(/C=C/c3ccc4c(c3)c3ccccc3n4Cc3cn(CCCN(C)CCN(C)C)nn3)=[N+]2[B-](F)(F)n2c(/C=C/c3ccc4c(c3)c3ccccc3n4Cc3cn(CCCN(C)CCN(C)C)nn3)cc(C)c21"
0.89

Reference source: patent US11584762B1
